# System: CAKI-1 renal
# Assay Name: NCI tumour cell line growth inhibition, 48 h; in the data active means GI50 below about 0.43 µM; inactive means the rest
Your response should consist of one outcome taken from T (active), F (inactive)

Please review the following examples before continuing.
INSERT INTO measurements (molecule, class_assignment) VALUES
  ('C=C[C@@H]1CCC/C=C/[C@@H]2C[C@H](O)C[C@H]2[C@H](O)/C=C/C(=O)O1', 'F'),
  ('NC(CCl)=NCC12CC3CC(CC(C3)C1)C2', 'T'),
  ('COc1ccc2c(c1)C(=O)/C(=C/c1ccc(O)cc1)O2', 'F'),
  ('FC(F)(F)c1cccc(Oc2ccc(Nc3ncnc4ccc(OCCCN5CCOCC5)cc34)cc2Cl)c1', 'F'),
  ('COc1ccc(NC(=O)c2ccc(C(F)(F)F)nc2Nc2ccc(Cl)cc2C)cc1Cl', 'F');

Hi, do you know how `O=c1oc2ccc(F)cc2c(=O)n1-c1ccc(I)cc1F` came out in this test?
T

Hi, do you know how Cn1cnc(SC2=CC(=O)C=C3S[C@H]4C[C@@]23c2c(c(O)c3c5c2=NCCC=5C=N3)N4)c1CC(N)C(=O)O (stereo not given in full) came out in this test?
F

Hi, do you know how `[Mn+3].[O-][Cl+3]([O-])([O-])O.[O-]c1ccccc1C=NCCN1CC1.[O-]c1ccccc1C=NCCN1CC1` came out in this test?
F

Hi, do you know how `O=C(Nc1ccc(Cl)cc1)c1cc(NCc2cc(O)ccc2O)ccc1O` came out in this test?
F

Hi, do you know how `C#Cc1cccc(Nc2nc(C)nc3cc(NC(=O)CCl)ccc23)c1` came out in this test?
F

---

# Test system: CCRF-CEM leukemia
# Assay Name: NCI tumour cell line growth inhibition, 48 h
// reported GI50 for each item listed

INSERT INTO results (molecule, measurement_target, reported_endpoint, value_observed) VALUES
  ('CO[C@H]1/C=C/O[C@@]2(C)Oc3c(C)c(O)c4c(O)c(c(/C=N/N5C(C)CN(Cc6ccc(C#N)cc6)CC5C)c(O)c4c3C2=O)NC(=O)/C(C)=C\C=C\[C@H](C)[C@H](O)[C@@H](C)[C@@H](O)[C@@H](C)[C@H](OC(C)=O)[C@@H]1C (stereo partly drawn)', 'CCRF-CEM leukemia', 'GI50', '2120 nM'),
  ('CCCCCCCCCCCCCCCCCC1=NC(C)(C)CN1C(C)(C)CO', 'CCRF-CEM leukemia', 'GI50', '1390 nM'),
  ('CN1C(c2ccccc2)CC(=NO)CC1c1ccccc1 (stereo not drawn)', 'CCRF-CEM leukemia', 'GI50', '29200 nM'),
  ('O=C1NN(C(=O)c2ccccc2)C(c2ccc(Cl)c(Cl)c2)=C/C1=C\c1ccccc1[N+](=O)[O-]', 'CCRF-CEM leukemia', 'GI50', '1910 nM'),
  ('C#Cc1cccc(Nc2nc(C)nc3cc(NC(=O)CCl)ccc23)c1', 'CCRF-CEM leukemia', 'GI50', '638 nM');

# query: GI50 of entry `COc1cc(OCCCN2CCCC2)ccc1Nc1ncc(Cl)c(Nc2ccccc2P(C)(C)=O)n1`
2090 nM

# query: GI50 of entry `FC(F)(F)c1cccc(Oc2ccc(Nc3ncnc4ccc(OCCCN5CCOCC5)cc34)cc2Cl)c1`
2770 nM

# query: GI50 of entry `C=C(C)[C@@H]1C/C=C(/COC(C)=O)CC[C@H]2O[C@@]2(C)CC/C=C(\C)CC1`
26900 nM

# query: GI50 of entry `Cc1cccc2c(=O)c3c(sc12)c(NCCCN)nc1ccccc13`
1320 nM

# query: GI50 of entry `COc1ccc(NC(=O)c2ccc(C(F)(F)F)nc2Nc2ccc(Cl)cc2C)cc1Cl`
3840 nM

# query: GI50 of entry `N[C@@H](Cc1c[nH]c2ccccc12)C(=O)NC1CCN(Cc2c[nH]c3ccc(Cl)cc23)CC1`
2150 nM
